# System: Rattus norvegicus
# assay-context: subchronic; duration: 90 days
metric-name: NOEL (mg/kg-day)
Please reply with the bare figure in mg/kg-day and do not write the unit itself.

What NOEL value was documented for this compound, CC(S)c1ccccc1 (stereo not drawn) ?
0.43

What NOEL value was documented for this compound, Cc1ccccc1S ?
0.51

What NOEL value was documented for this compound, CC1SCCSS1 (stereo not drawn) ?
0.3

What NOEL value was documented for this compound, C=CCSSSCC=C [Diallyl trisulfide] ?
4.6

What NOEL value was documented for this compound, COc1ccccc1S ?
0.51

What NOEL value was documented for this compound, Cc1cccc(C)c1S ?
0.43

What NOEL value was documented for this compound, C=CCSSCCC [Allyl propyl disulfide] ?
4.6

What NOEL value was documented for this compound, CSCS ?
0.3
